Source listed as paper PMC9516332.

# system-under-test: panel of 255 wild-type kinases (Homo sapiens)
# Sequence (Q9HC98 whole entry): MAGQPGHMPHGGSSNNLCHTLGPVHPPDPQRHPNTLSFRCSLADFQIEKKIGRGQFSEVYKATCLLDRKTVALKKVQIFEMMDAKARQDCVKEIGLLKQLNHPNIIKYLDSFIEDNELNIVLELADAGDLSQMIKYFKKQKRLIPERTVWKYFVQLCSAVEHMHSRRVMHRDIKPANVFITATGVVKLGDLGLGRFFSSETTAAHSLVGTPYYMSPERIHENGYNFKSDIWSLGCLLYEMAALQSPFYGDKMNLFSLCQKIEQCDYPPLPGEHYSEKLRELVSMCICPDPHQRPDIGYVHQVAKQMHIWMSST
# assay-notes: Kinase panel profiling at 1 µmol/L (MSA or IMAP), percentage inhibition
# Type: biochemical
# experimental-context: NEK6; 1 µmol/L single concentration; read-out: %-inhibition, NEK6
parameter-measured: inhibition at 1 µM (%)
Field format: number, assumed %, no unit text.

Ask | Kindly state the measured inhibition at 1 µM obtained for Cn1cnc2c(F)c(Nc3ccc(Br)cc3Cl)c(C(=O)NOCCO)cc21 with panel of 255 wild-type kinases (Homo sapiens).
Reply | -1.5

Ask | Next record, please: CCN1CCN(c2ccc(Nc3cc(N(C)C(=O)Nc4c(Cl)c(OC)cc(OC)c4Cl)ncn3)cc2)CC1
Reply | -2.62

Ask | Next record, please: Cn1cc(-c2cc3c(N4CCN(c5ncc([C@@](C)(N)c6ccc(F)cc6)cn5)CC4)ncnn3c2)cn1
Reply | -1.13

Ask | Next record, please: CCN1C(=O)N(c2c(F)c(OC)cc(OC)c2F)Cc2cnc3[nH]c(CN4CCOCC4)cc3c21
Reply | -2.6

Ask | Next record, please: O=C(Nc1cnn2ccc(N3CCC[C@@H]3c3cc(F)ccc3F)nc12)N1CC[C@H](O)C1
Reply | 0.246

Ask | Next record, please: CCn1c(=O)c(-c2cc(NC(=O)Nc3ccccc3)c(F)cc2Br)cc2cnc(NC)cc21
Reply | -4

Ask | Next record, please: C[C@H]1Oc2cc(cnc2N)-c2c(nn(C)c2C#N)CN(C)C(=O)c2ccc(F)cc21
Reply | -0.382

Ask | Next record, please: CCc1nc(C(N)=O)c(Nc2ccc(N3CCC(N4CCN(C)CC4)CC3)c(OC)c2)nc1NC1CCOCC1
Reply | -2
